Taken from the supplement of paper PMC6555819.

Tested on: PPARg:RXRa (NR concentration 180 nM, RXRa partner concentration 90 nM)
protocol_summary: PBM binding z-score (relative to random genomic background probes); higher = stronger binding; sequences stand for … in GC…GCGATTGACAGCGTAGAATGAAGG
measured_endpoint: PBM binding z-score

1. CCGACTGGGGCAAGGTTACTATAACGCACAGCCA | 3.02
2. TCGAGTAGGTTAGTCGGGGCATTCCGCCAACATA | -0.328
3. CCCACTGGGCCATCAGGTCATTGATATCAACGTT | 2.87
4. ACAGACAGGTGATTGAAGGTAACTCAGCTGGACG | 0.626
5. ACTTACGGGTCAACGAGGATATAGCACGCGTATA | 5
6. CCTTACGGGTGACGAGGTTATAGCACGACGAGCG | 1.89
7. GGAACGAGGGCATTCGAGTTGTTAGCATGGCGAT | 0.562
8. GCTCGGAGGCCAAGGTCAGAGCTTTGTCCGTAGA | 0.0755
9. CTTCAAAGTTCAAGGTAACGTAACAGAAAGCAGC | 2.86
10. CGTCCAAGGTCAGCAGCTCAGTGAAAGCGACGTG | 1.68
11. CAAACTAGGTCACCGGAGGGTCAAAGTCCGCATG | 8.8
12. ATCTCTAGTTAACCAAGTTCAGTGAATGCCGAAC | -0.088
13. CGTCCAAGGTCAAAGGTCAGTGAAGAGATGACGG | 10.8
14. TGAATGAGGTTATCAGATCAGGGAACGTTGCAAA | 1.74
15. TAGCCAAGGTCATGCGGGCCAGTATAGTGTCGGC | 4.64
16. TCATATAGGTAAATGCTAGGTGAAAGTTCGATCT | 3.2
17. CCTACTGGGCCATCAGGTCATTCATATCAACGTT | 2.7
18. TCGAGTAGGTTACCAATCGGGCATTCAGCTTTCT | -0.0284
19. CCGACTGGGGCACGGTTACCATAACGCACAGCCA | 1.8
20. TAGCCTAGGTCATGGGGCCAGTATAGTACGCATC | 3.62
21. ATCGAAAGGTCGAGGTGACTATAGAGAAAGGGAA | 3.8
22. CCTACTGGGCAATCAGGTCATTGATATCAACGTT | 1.34
23. TCATAGAGGTAAATGCTAGGTGAAAGTCCGATCT | 0.339
24. CATAGCAGGCCAGGGTCACTCAAGCATTTCGCTT | 1.88
25. CTACCAAGGTGAACAAGGTAGTTGATTACTATTC | 0.675
26. ACTAGCAGGCCAAGTTTGGGTCTCTCAAACAAAG | -0.897

###

Tested on: PPARg DBDmut:RXRa IVT, anti-PPARg (DBD mutation: PPARg1 K132A/R137A, NR concentration 270 nM, RXRa partner concentration 90 nM)
protocol_summary: PBM binding z-score (relative to random genomic background probes); higher = stronger binding; sequences stand for … in GC…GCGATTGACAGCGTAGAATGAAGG
measured_endpoint: PBM binding z-score

1. AGTCAAAGTTCACTAGGTAACTTAAGATTCAGCT | 2.06
2. TCTAGTTGGTCACGGAGGTCACGCACGACGGGTA | 1.18
3. GGAACGAGTGCAAGTTGATAGCAGAGTTTGATGG | 0.145
4. ATCTCCAGGTAACAAGTTCAGTGAAAGAGAGGAC | 1.63
5. TAGCCTAGGTCATTGGGCCAGTTTAGTACGCATC | -0.6
6. AGAAAGAGGGCACGCTGAGTTGATAGCAGAGTAG | 0.171
7. TTACGAAGGTGAGCTGAGGTCGTTGATCCAACTC | -0.294
8. ATCTGTAGGTTAGCTGGGGTCATTCAGACTAGGC | 1.42
9. ATCTCTAGGTAACAAGTTCAGCGAAAGAGAGGAC | 1.31
10. ATCCAAAGGTCGTGAGGTGAGTATACAGAAAGGC | 1.39
11. ATAGAAAGGTCGACGAGGTGAGTATACACCGTTT | 1.11
12. ATATGTAGGTTACATCCGGGTCATACAGGCTATG | 4.07

###

Test system: RARg homodimer (NR concentration 270 nM)
protocol_summary: PBM binding z-score (relative to random genomic background probes); higher = stronger binding; sequences stand for … in GC…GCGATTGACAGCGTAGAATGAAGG
Assign class by PBM binding z-score: not lower than 0.8 means criterion met; lower than 0.8 means criterion not met.

1) CCGACTGGCGCATAAGGTTACCATAAGCCAGCCC | criterion not met
2) CCTACTGGGCCAGCAGGTCATTGATATCAACGTT | criterion met
3) TCTTGTAGATCAACAGGAGTTTAAGAAAGATCGA | criterion not met
4) CCTAGCAGGCCAATCTGGGTCACTCACGGCTTGA | criterion met
5) AATACAGGGTCAGCGTAGGCCAGAGTACGCACAG | criterion met
6) ATATGTAGGTTATCGGGTCATTCAGTTTGCGCAT | criterion met
7) AGAATGAGGTTAGTAAGATCAGGGAATTGCGGTC | criterion not met
8) GCTAGCAGGCCATTTGCGTCACTCAATGACGGGC | criterion not met
9) ACTTTTAGTTGACTTAGGGCAACCGATACGACGC | criterion met
10) ATCGAACGGTCGAAGGTGAGTATACCCACCCGAA | criterion met
11) ATCTCTAGGTAACCAAGTTCACTGAATGCCGAAC | criterion met
12) TCAGACAGGTGAAGGTAATTCAGGTACGCAGTCG | criterion not met
13) TCTTGTAGATCAAGCAGGTTAAGAGAGCCTGAGT | criterion not met
14) TCAGACAGGGGAAGGTAACTCAGGTACGCAGTCG | criterion not met
15) ACAGACAGGTGAGAGAAGGTAACTCAGCTGGACG | criterion not met
16) ATATGTAGGTTACATCCGGGGCATTCAGGCTATG | criterion met
17) TGTTGTAGATCAAAGGTTAAGAAAGCCGAAGCCT | criterion met
18) CGTCCAAGGTCATGGTCAGTGAAAGAGACTCGAA | criterion met
19) CTACCAAGGTGTACAAGGTCGTTGATTACTATTC | criterion not met
20) TCTCGCAGGACACGAAAGGTCAGAGCTCGACATC | criterion met
21) CCGACTGGGGCAAAGTTTACCATACTCAGTACGA | criterion met
22) TGTCAAAGTTCAAAGGTAATGTAAGTATCCACAC | criterion met
23) CAAACTAGGTCAAGGTGAAAGTCGGTTTGTGCCA | criterion met
24) ACTAGCAGGCCATGTTTGGGTCACTCAAACAAAG | criterion met
25) ACAGACACGTGATGAAGGTAACTCAGGCTATCAT | criterion not met
26) GCGGCTAGGTCAGGTTGGTCAGCTAACGGGTACG | criterion met
27) TAGCCTAGGTCTGATCGGGCCAGTATACGCTATA | criterion not met
28) CGACCAAGGTCAAGGTCAGTGAAAGAGACTCGAA | criterion met
29) GATACAGGGACAAGGCCAGAGTACGCGTATTGAT | criterion met
30) CAAACTAGGTCTCCGGAAGGTCAAAGTCCGCATG | criterion met
31) CAAACTAGGTCAAGGTTAAAGTCGGTTTGTGCCA | criterion met
32) GCTGCTAGGTCACGTTGGTCAGCTAACGGGTACG | criterion met
33) CCGACTAGGGCAAGGTTACCATAACGCACAGCCA | criterion met
34) ATCGAAAGGTCGAAGGTGAGAATACCCACCCGAA | criterion met
35) CGAACTAGGTCATTGACAGGTCAGTGAATAGTAA | criterion met
36) ATCGAAAGGTCGATGAGGTGAGTATACACCGTTT | criterion met
37) CGTCCACGGTCAATGCTAGGTCAGTGAAAGCATT | criterion met
38) TCATATAGGTAAATGCTAGGTGAAAGTACGATCT | criterion not met
39) CGTACTAGGTCATCCAGGACAGTGAATACATTGA | criterion met
40) TTACCAAGGTGAAGGTCGTTTATCCCTCTGTAGA | criterion met
41) CCTCGTAGGACAGAAGGTCAGAGCTGTCCGCTTT | criterion met
42) CCTACTGGGCCACGAAAGGTCGTTGATTCAGTGA | criterion met
43) CCTGCTAGGTCAATGGTCAGTTAAAGCAGCTCGC | criterion met
44) CATACAGGGTCAGCTAGGCCAGAGTAGGGACGGC | criterion met
45) GTACCAAGTTGAATAGGTCGTTGATGAGTAGGCG | criterion not met
46) CCTTACGGGTCACTCCAGGTTATAGCTTCGGAGT | criterion met
47) TCATATAGGTAAACACGTGAAAGTCCGTAAGTTA | criterion not met
48) AGAATGCGGTTACCAAAGATCAGGGAAACGCTTG | criterion not met
49) TTGCCTAGGTCATTCAGGGGCCAGTATAGAAAGC | criterion met
50) TCTCGGAGGACACGAAAGTCAGAGCTTTCCAGAG | criterion met
